System: cancer cell lines
Experiment: Cancer cell proliferation activity (CellTiterGlo, 72 h)
Format: cell-based
Settings: Homo sapiens, ASPC1, 72 h, ASPC1 (pancreas), 72 h; read-out: IC50 cell proliferation
pIC50: −log10 of the molar value.
I would appreciate it if you labelled entries t when pIC50 is 6 or higher, otherwise f.

Study these solved cases before continuing.
>>> print(df.to_string())
                                   molecule  group_label
0  Nc1nc(F)nc2c1ncn2[C@@H]1O[C@H](CO)[C@@H](O)[C@H]1O [compound 184]            t
1  C[C@]1(CO)O[C@@H](n2cnc3c(O)nc(N)nc32)C[C@@H]1O [Cpd. No. 115]            f
2  Nc1nc(F)nc2c1ncn2[C@@H]1O[C@H](CO)[C@@H](O)[C@@H]1O [compound 170]            f
3  C[C@]1(CO)O[C@@H](n2ccc(N)nc2=O)[C@@H](O)[C@@H]1O [Cpd. No. 193]            f
4  CCC[C@]1(CO)O[C@@H](n2cnc3c(N)nc(F)nc32)[C@H](O)[C@@H]1O [compound 195]            t
5  C#C[C@]1(CO)O[C@@H](n2cc(Cl)c(N)nc2=O)C[C@@H]1O [Cpd. No. 109]            f
6  N#C[C@]1(CO)O[C@@H](n2cc(F)c(=O)[nH]c2=O)C[C@@H]1O [Cpd. No. 107]            f
7  Nc1ccn([C@H]2C[C@H](O)[C@](CO)(CF)O2)c(=O)n1 [Cpd. No. 198]            t
8  Nc1nc(=O)n([C@H]2C[C@H](O)[C@@H](CO)O2)cc1F [compound 169]            t
9  O=c1[nH]c(=O)n([C@H]2C[C@H](O)[C@@H](CO)O2)cc1F [compound 185]            t

API: the following record is the query input.
For this molecule, is measured pIC50 6 or higher? Nc1nc(=O)n([C@H]2C[C@H](O)[C@](CO)(CF)O2)cc1F [Cpd. No. 197]
t
